- Test system: Saccharomyces cerevisiae
- Assay Overview: protein stability index of tFT-peptide fusion (C-terminal peptide) (PSI (0-1 scale)); higher = more stable (slower turnover)
- Experimental Setup: genetic background: cdc34-1; temperature: 37 C
Reported Endpoint: protein stability index
Kindly provide the number alone.

Macromolecule Sequence: FNFFFSSVFLLV
Measurement Target: Saccharomyces cerevisiae
Readout Value: 0.304
--
Macromolecule Sequence: TVWRRIRHACAH
Measurement Target: Saccharomyces cerevisiae
Readout Value: 0.597
--
Macromolecule Sequence: CRHCFVLLYFDY
Measurement Target: Saccharomyces cerevisiae
Readout Value: 0.304
--
Macromolecule Sequence: RVLSLLGCFVVF
Measurement Target: Saccharomyces cerevisiae
Readout Value: 0.501

Exercise: Record lookup: for Saccharomyces cerevisiae, what protein stability index belongs to GLCGVVVGCWVR ?
Solution: 0.395

Exercise: Record lookup: for Saccharomyces cerevisiae, what protein stability index belongs to MALAVRVVFCGA ?
Solution: 0.33

Exercise: Record lookup: for Saccharomyces cerevisiae, what protein stability index belongs to ESRRGILFIYIN ?
Solution: 0.325

Exercise: Record lookup: for Saccharomyces cerevisiae, what protein stability index belongs to RGGVRGVRSGRG ?
Solution: 0.588

----------
- Test system: Saccharomyces cerevisiae
- Assay Overview: protein stability index of tFT-peptide fusion (C-terminal peptide) (PSI (0-1 scale)); higher = more stable (slower turnover)
- Experimental Setup: genetic background: das1 deletion; temperature: 30 C
Reported Endpoint: protein stability index
Kindly provide the number alone.

Macromolecule Sequence: TSIEEDLASKSE [RTA1 C-terminal 12 aa]
protein stability index: 0.689
--
Macromolecule Sequence: TKVIQVQKKCIQ [IRC14 C-terminal 12 aa]
protein stability index: 0.688

Exercise: protein stability index for KIITLDLSNYAE [SMC1 C-terminal 12 aa] ?
Solution: 0.709

Exercise: protein stability index for KHKNILPFNFTK [YEL074W C-terminal 12 aa] ?
Solution: 0.703

Exercise: protein stability index for KQLDLKHMLEMH [MRPL44 C-terminal 12 aa] ?
Solution: 0.7

Exercise: protein stability index for EQIELKNFFVDV [YCR016W C-terminal 12 aa] ?
Solution: 0.688

Exercise: protein stability index for ALDAEKYLTSLE [TRR1 C-terminal 12 aa] ?
Solution: 0.707

----------
# Lookup of reported protein stability index keyed by entry
- System: Saccharomyces cerevisiae
- Assay Overview: protein stability index of tFT-peptide fusion in wild type (PSI (0-1 scale)); higher = more stable (slower turnover)
- Experimental Setup: genetic background: wild type
Kindly provide the number alone.

Sample records with protein stability index:
Macromolecule Sequence: DTSCGYKFRTNN
Measurement Target: Saccharomyces cerevisiae
protein stability index: 0.241

Macromolecule Sequence: RLIQPLEVQFLN
Measurement Target: Saccharomyces cerevisiae
protein stability index: 0.163

Macromolecule Sequence: KKHKWGQKQKIN
Measurement Target: Saccharomyces cerevisiae
protein stability index: 0.05

Macromolecule Sequence: CTSCGYKFPTNN
Measurement Target: Saccharomyces cerevisiae
protein stability index: 0.71

Macromolecule Sequence: GLYMCSVGCWFRI
Measurement Target: Saccharomyces cerevisiae
protein stability index: 0.11

Exercise: protein stability index for LVVYLSCVACIV ?
Solution: 0.0146

Exercise: protein stability index for AKTLPMCPLLLR ?
Solution: 0.352

----------
- Tested on: Saccharomyces cerevisiae
- Assay Overview: protein stability index of tFT-peptide fusion (C-terminal peptide) (PSI (0-1 scale)); higher = more stable (slower turnover)
- Experimental Setup: genetic background: wild type; temperature: 30 C
# Lookup of reported protein stability index keyed by entry
Kindly provide the number alone.

Macromolecule Sequence: KKKKTKPKPKRM
Measurement Target: Saccharomyces cerevisiae
protein stability index: 0.659
//
Macromolecule Sequence: LSGYLVCSLSLR
Measurement Target: Saccharomyces cerevisiae
protein stability index: 0.695
//
Macromolecule Sequence: KENNWTKKKKGK
Measurement Target: Saccharomyces cerevisiae
protein stability index: 0.655
//
Macromolecule Sequence: LVAFNCVVLGKG
Measurement Target: Saccharomyces cerevisiae
protein stability index: 0.686

Exercise: protein stability index for FALSSLTFPLPT ?
Solution: 0.744

Exercise: protein stability index for SPSSPPPPPPPA ?
Solution: 0.833

Exercise: protein stability index for RSFGGRPWVLFL ?
Solution: 0.192

Exercise: protein stability index for PPPPPPRPFPPP ?
Solution: 0.66

Exercise: protein stability index for DVGIVPGVFWWV ?
Solution: 0.738

Exercise: protein stability index for VSIMRLGSCRQD ?
Solution: 0.702

Exercise: protein stability index for SGSSIAVLPTPC ?
Solution: 0.747

Exercise: protein stability index for SVVGNYHQTEPV ?
Solution: 0.702

Exercise: protein stability index for VFGSVAALRLLM ?
Solution: 0.378

Exercise: protein stability index for WVVRVMYTSSGK ?
Solution: 0.556

Exercise: protein stability index for PTPHTTHPQNNT ?
Solution: 0.729

Exercise: protein stability index for KKKTKTQTGKKS ?
Solution: 0.744

Exercise: protein stability index for PVINPSCIVMMW ?
Solution: 0.65

----------
- Tested on: Saccharomyces cerevisiae
- Assay Overview: protein stability index of tFT-peptide fusion (C-terminal peptide) (PSI (0-1 scale)); higher = more stable (slower turnover)
- Experimental Setup: genetic background: wild type; temperature: 30 C
Assign Condition met whenever protein stability index does not fall below 0.7; assign Condition not met whenever it does.

Macromolecule Sequence: VSGFVILDSTCP
Measurement Target: Saccharomyces cerevisiae
Category: Condition not met
--
Macromolecule Sequence: PPGPLPTPPYPP
Measurement Target: Saccharomyces cerevisiae
Category: Condition not met
--
Macromolecule Sequence: CSLQCLGWPISS
Measurement Target: Saccharomyces cerevisiae
Category: Condition met

In the following, a different sequence is considered.
Exercise: Reported protein stability index at or above 0.7? IILHLTRPGLAL
Solution: Condition not met

----------
- System: Saccharomyces cerevisiae
- Assay Overview: protein stability index of tFT-peptide fusion (C-terminal peptide) (PSI (0-1 scale)); higher = more stable (slower turnover)
- Experimental Setup: genetic background: das1 deletion; temperature: 30 C
Reported Endpoint: protein stability index
Kindly provide the number alone.

Sample records with protein stability index:
Macromolecule Sequence: PHRLSRFILRLL
Measurement Target: Saccharomyces cerevisiae
protein stability index: 0.65
--
Macromolecule Sequence: VMWFVLVGLCIL
Measurement Target: Saccharomyces cerevisiae
protein stability index: 0.382
--
Macromolecule Sequence: GSDGVGGTVLYA
Measurement Target: Saccharomyces cerevisiae
protein stability index: 0.634
--
Macromolecule Sequence: ISTRLALCACVC
Measurement Target: Saccharomyces cerevisiae
protein stability index: 0.245
--
Macromolecule Sequence: GGGGLRVVVWLV
Measurement Target: Saccharomyces cerevisiae
protein stability index: 0.501

Exercise: protein stability index for SVSFFSLCTSSL ?
Solution: 0.506

----------
- Tested on: Saccharomyces cerevisiae
- Assay Overview: protein stability index of tFT-peptide fusion (C-terminal peptide) (PSI (0-1 scale)); higher = more stable (slower turnover)
- Experimental Setup: genetic background: das1 deletion; temperature: 30 C
# Lookup of reported protein stability index keyed by entry
Kindly provide the number alone.

Macromolecule Sequence: EVALAPSSNMIF [YKL083W C-terminal 12 aa]
protein stability index: 0.716

Macromolecule Sequence: SIDQFRGKLNSI [URA1 C-terminal 12 aa]
protein stability index: 0.701

Macromolecule Sequence: NIIGLLSNDEEH [CBP2 C-terminal 12 aa]
protein stability index: 0.694

Macromolecule Sequence: YAGENFHHGDKL [ENO2 C-terminal 12 aa]
protein stability index: 0.695

Exercise: protein stability index for CTKHRFGYQNWI [ARP6 C-terminal 12 aa] ?
Solution: 0.692

Exercise: protein stability index for ETSITNDNESQQ [PPZ1 C-terminal 12 aa] ?
Solution: 0.695

Exercise: protein stability index for VDFIKEFAEKNA [SER1 C-terminal 12 aa] ?
Solution: 0.708

Exercise: protein stability index for ILRILANSNDDN [BXI1 C-terminal 12 aa] ?
Solution: 0.699

Exercise: protein stability index for DEFQRLTNGIPY [STT4 C-terminal 12 aa] ?
Solution: 0.695

Exercise: protein stability index for GPEKAAELAFLA [YML079W C-terminal 12 aa] ?
Solution: 0.685

Exercise: protein stability index for HLGKFFVKQKIL [ERP1 C-terminal 12 aa] ?
Solution: 0.696

Exercise: protein stability index for PEGGDGPKYTLT [CIR2 C-terminal 12 aa] ?
Solution: 0.688

Exercise: protein stability index for FMGLGCVISEEL [TFB3 C-terminal 12 aa] ?
Solution: 0.693

Exercise: protein stability index for PKWCSTMCSTAT [YDR445C C-terminal 12 aa] ?
Solution: 0.69

Exercise: protein stability index for LNNFKFKTNSKQ [XBP1 C-terminal 12 aa] ?
Solution: 0.713

Exercise: protein stability index for RVVDLVEHVAKA [TDH2 C-terminal 12 aa] ?
Solution: 0.705

----------
- Test system: Saccharomyces cerevisiae
- Assay Overview: protein stability index of tFT-peptide fusion (C-terminal peptide) (PSI (0-1 scale)); higher = more stable (slower turnover)
- Experimental Setup: genetic background: das1 deletion; temperature: 30 C
Assign y whenever protein stability index does not fall below 0.7; assign n whenever it does.

Reference set, count: 2
Macromolecule Sequence: LLLSIFSILIVL [YPS7 C-terminal 12 aa]
Measurement Target: Saccharomyces cerevisiae
Category: n

Macromolecule Sequence: LILQRLKTSLKI [GFD1 C-terminal 12 aa]
Measurement Target: Saccharomyces cerevisiae
Category: n

Exercise: Reported protein stability index at or above 0.7? ENYYPSSLTLDI [JLP1 C-terminal 12 aa]
Solution: y

Exercise: Reported protein stability index at or above 0.7? LFSNVLSLSSNI [YGL007C-A C-terminal 12 aa]
Solution: y

Exercise: Reported protein stability index at or above 0.7? GQVIDPLKAPFK [UTP14 C-terminal 12 aa]
Solution: n

Exercise: Reported protein stability index at or above 0.7? HIRKERTLYIYI [PIH1 C-terminal 12 aa]
Solution: n

Exercise: Reported protein stability index at or above 0.7? FWEKRWKDGWDE [ERV1 C-terminal 12 aa]
Solution: y

Exercise: Reported protein stability index at or above 0.7? VQSTDIAAMQKL [EFB1 C-terminal 12 aa]
Solution: y
